- Tested on: MS2 coat protein
- method.summary: apparent KD of MS2 coat protein; designed switch direction (-1 OFF switch, 1 ON switch): -1; higher = weaker reporter binding
- applied.conditions: Eterna round: R95; input ligand: FMN 200 uM
Listed sequences paired with reported apparent KD of MS2 coat protein

Worked examples follow.
seq.string | target.under.test | apparent KD of MS2 coat protein
GGUACUAACACGAAAGUGUUAGUACUAUAAGCUUGUGUUACAUGAGGAUCACCCAUGUCCUCAUAGGCUCGUCUUGU [JL-sv3-2.17 mat747 mod] (puzzle: Sensor v3, turn-off variant 2) | MS2 coat protein | 105 nM
AAUAAUAAGGAGGAUAUCCUAACCGAAAGGUUAGGAGAAGGCCUAACAUGAGGAUCACCCAUGUUCCUCAAUAA [Mat - Exclusion 6 - Eli Mod - D57] (puzzle: Exclusion 6) | MS2 coat protein | 318 nM

We next turn to a different sequence, shown below.
Observed apparent KD of MS2 coat protein on MS2 coat protein, entry GGUUGGCGAGGAUAUACAUGAGGAUCACCCAUGUGCGAGAAAAAAGUGAGGAAGAAAAGUAGAAGGCGCUGACG [salish99_ex3_r3_018] (puzzle: Exclusion 3) , equals 238 nM

====

- Test system: MS2 coat protein
- method.summary: apparent KD of MS2 coat protein; higher = weaker reporter binding
- applied.conditions: Eterna round: R107; input ligand: arginine 13.2 mM
Listed sequences paired with reported apparent KD of MS2 coat protein

seq.string | val
GACGCAUGAGUUGUAACAGCUCAUGGGUCGCGAGGACCGGUACGGCCGCCACUCGGCUGUACAUGAGGAUCACCCAUGUCAGGGU [#1 Same State - Tryptophan A Attempt #29 (HarryS)] | 0.0247 µM
UGUAUGGACUGAAGGAGCGGAAGAUAGCUUGAGGAUCACCCAAGUAAUAAGGCGAAAGCCUUCCAGGUAGGUCGCAGUCCAUACU | 0.0314 µM
AAAGAUCGGAAACGAUCGGCGGCUUGGGCGCGAGGACCGGUACGGCCGCCACUCGGGAAACAUGAGGAUCACCCAUGUUGCUAGC [ETA NP+V+V2 #15] | 0.0123 µM
UGUACUAUGUGAAGGAGCGAGAAUCCUACAUGAGGAUCACCCAUGUAACAGCGAAAGCUGACUCAGGUAGGUCGCACAUAGUACU [ArgBS - First try] | 0.111 µM
GGUUGGUGUAGAGAUAUAUUGAUUACUGAAGGAGCGGGAACAAACCCAGGUAGGUCGCAGAGAUCCACAUGAGGAUCACCCAUGU [!0.N] | 0.0352 µM

response.value for CUACAUUUGUAGAAACCGGUCAACAUUAUUCGAGGACCGGUACGGCCGCCACUCGUAUAUUUUAAUACAUGAGGAUCACCCAUGU [Tryptophan A 6] (field: apparent KD of MS2 coat protein) = 0.0123 µM

response.value for AAUAAACAUGAGGAUCACCCAUGUAGGGUGCGAGGACCGGUACGGCCGCCACUCGGGUGAAAACAUGAGGAUCACCCAUGUAAAA [Mat - Exclusion - Trytophan A - D23] (field: apparent KD of MS2 coat protein) = 0.0611 µM

response.value for UGACAUUGCUCAGAUACCAGACAGGAGGAUCACUCCUGUGCCAACAAGUACAAAAUAAAUGUCCCUUGGCAGCUGAGCAAUGUCU [TheoBX 25 #MS2Left #AlternativeMS2 #Theo22] (field: apparent KD of MS2 coat protein) = 0.032 µM

response.value for GGCGGACUUAUAGAUACCAGCACAUGAGGAUCACCCAUGUUUGGUCGCACCUCAGUCCUGUGCCCUUGGCAGCUAUGAUAGAUUU [Leaatge] (field: apparent KD of MS2 coat protein) = 0.0169 µM

response.value for UGGCAAGAGGGAAGGAGCGUCAGCUGAGUCACAUGAGGAUCACCCAUGUCGCACAUAGUGUGACAGGUAGGUCGCCCUCUACCCU [Rearian] (field: apparent KD of MS2 coat protein) = 0.0679 µM

response.value for GGAUAGGACACGGCCGCCACUAGCUAGGAUACUAGCAACAUUUCCUCGCAUGAGGAUCACCCAUGUAGGACCGGGUGUCCUAUCG (field: apparent KD of MS2 coat protein) = 0.159 µM

response.value for ACCGCGGUAUCGGCCGCCACUUGUGGGUUAAAUCUGGUACAUGAGGAUCACCCAUGUGUCUCCUCGAGGACCGGGAUAGCGUGAC [Geaner] (field: apparent KD of MS2 coat protein) = 0.0977 µM
